We begin with a simple list: items and their reported MFI ratio to WT (ΔWT).
target: T1, human CTLA-4, full-length, expressed on transfected Expi293 cells (human, UniProt P16410 36-223); test: flow cytometry, 100 nM, Expi293 cells with human CTLA-4
T1 construct: whole, on cells
T1 sequence (P16410 36-223): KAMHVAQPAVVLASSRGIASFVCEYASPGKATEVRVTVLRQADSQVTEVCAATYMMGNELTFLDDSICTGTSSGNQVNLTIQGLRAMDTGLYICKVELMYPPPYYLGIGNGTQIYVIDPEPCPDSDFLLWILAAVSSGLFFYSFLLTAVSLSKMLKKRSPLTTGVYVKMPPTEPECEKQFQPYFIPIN
Field: value (include unit after the number)

Reference set, count: 2
* variant ICOSL IgV-Fc fusion N52A/N57F/Q100S (Fc fusion) DTQEKEVRAMVGSDVELSCACPEGSRFDLNDVYVYWQTSESKTVVTYHIPQASSLEFVDSRYRNRALMSPAGMLRGDFSLRLFNVTPQDEQKFHCLVLSSSLGFQEVLSVEVTLHVAANFSVGSGGGGSEPKSSDKTHTCPPCPAPEAEGAPSVFLFPPKPKDTLMISRTPEVTCVVVDVSHEDPEVKFNWYVDGVEVHNAKTKPREEQYNSTYRVVSVLTVLHQDWLNGKEYKCKVSNKALPAPIEKTISKAKGQPREPQVYTLPPSREEMTKNQVSLTCLVKGFYPSDIAVEWESNGQPENNYKTTPPVLDSDGSFFLYSKLTVDKSRWQQGNVFSCSVMHEALHNHYTQKSLSLSPG | 0.77 fold
* variant ICOSL IgV-Fc fusion N52R/N57Y/Q100S (Fc fusion) DTQEKEVRAMVGSDVELSCACPEGSRFDLNDVYVYWQTSESKTVVTYHIPQRSSLEYVDSRYRNRALMSPAGMLRGDFSLRLFNVTPQDEQKFHCLVLSSSLGFQEVLSVEVTLHVAANFSVGSGGGGSEPKSSDKTHTCPPCPAPEAEGAPSVFLFPPKPKDTLMISRTPEVTCVVVDVSHEDPEVKFNWYVDGVEVHNAKTKPREEQYNSTYRVVSVLTVLHQDWLNGKEYKCKVSNKALPAPIEKTISKAKGQPREPQVYTLPPSREEMTKNQVSLTCLVKGFYPSDIAVEWESNGQPENNYKTTPPVLDSDGSFFLYSKLTVDKSRWQQGNVFSCSVMHEALHNHYTQKSLSLSPG | 1.53 fold

Request: Look up and report measured MFI ratio to WT (ΔWT) for this entry: variant ICOSL IgV-Fc fusion N52Q/N57S/Q100A (Fc fusion) DTQEKEVRAMVGSDVELSCACPEGSRFDLNDVYVYWQTSESKTVVTYHIPQQSSLESVDSRYRNRALMSPAGMLRGDFSLRLFNVTPQDEQKFHCLVLSASLGFQEVLSVEVTLHVAANFSVGSGGGGSEPKSSDKTHTCPPCPAPEAEGAPSVFLFPPKPKDTLMISRTPEVTCVVVDVSHEDPEVKFNWYVDGVEVHNAKTKPREEQYNSTYRVVSVLTVLHQDWLNGKEYKCKVSNKALPAPIEKTISKAKGQPREPQVYTLPPSREEMTKNQVSLTCLVKGFYPSDIAVEWESNGQPENNYKTTPPVLDSDGSFFLYSKLTVDKSRWQQGNVFSCSVMHEALHNHYTQKSLSLSPG
Response: 0.95 fold

Request: Consider the binder variant ICOSL IgV-Fc fusion N52L/N57V (Fc fusion) DTQEKEVRAMVGSDVELSCACPEGSRFDLNDVYVYWQTSESKTVVTYHIPQLSSLEVVDSRYRNRALMSPAGMLRGDFSLRLFNVTPQDEQKFHCLVLSQSLGFQEVLSVEVTLHVAANFSVGSGGGGSEPKSSDKTHTCPPCPAPEAEGAPSVFLFPPKPKDTLMISRTPEVTCVVVDVSHEDPEVKFNWYVDGVEVHNAKTKPREEQYNSTYRVVSVLTVLHQDWLNGKEYKCKVSNKALPAPIEKTISKAKGQPREPQVYTLPPSREEMTKNQVSLTCLVKGFYPSDIAVEWESNGQPENNYKTTPPVLDSDGSFFLYSKLTVDKSRWQQGNVFSCSVMHEALHNHYTQKSLSLSPG . State its measured MFI ratio to WT (ΔWT).
Response: 0.46 fold
